tested on: HS 578T breast; experiment: NCI tumour cell line growth inhibition, 48 h
Property Name: TGI

[
  {
    "Compound": "CN(C)Cc1nsc(N(C)C)n1",
    "Endpoint Result": "> 100 µM"
  },
  {
    "Compound": "O=C(O)C(C1NCCS1)N1C(=O)c2ccccc2C1=O (stereo unspecified)",
    "Endpoint Result": "> 100 µM"
  },
  {
    "Compound": "CC(=O)O[C@H]1[C@@H](N2CCCCC2)C[C@H]2[C@@H]3CC=C4C[C@@H](N5CCCC5)CC[C@]4(C)[C@H]3CC[C@@]21C",
    "Endpoint Result": "> 100 µM"
  },
  {
    "Compound": "Cc1cc(N)c2cc(NC(=O)/C=C\\c3ccccc3Cl)ccc2n1",
    "Endpoint Result": "3.88 µM"
  },
  {
    "Compound": "C1=C(c2ccccc2)NC2=N[C@H]3CCCC[C@@H]3N2C1c1ccccc1 (stereo partly specified)",
    "Endpoint Result": "41.2 µM"
  },
  {
    "Compound": "COc1cc(/C=C/C(=O)c2cccc(-n3cc(-c4ccccc4)[nH]c3=O)c2)ccc1O",
    "Endpoint Result": "18.6 µM"
  },
  {
    "Compound": "Cc1cc(O)c(C(O)c2ccccn2)cc1O (stereo unspecified)",
    "Endpoint Result": "> 100 µM"
  },
  {
    "Compound": "COC(=O)c1c(C)c2c(c(C)c1O)OC(=O)c1c(C)cc(O)c(C=O)c1O2",
    "Endpoint Result": "> 100 µM"
  },
  {
    "Compound": "O=C(Nc1cccc2[nH]c(C(F)(F)F)nc12)c1ccc(Br)cc1F",
    "Endpoint Result": "22.8 µM"
  },
  {
    "Compound": "CN(C)Cc1c[nH]c2nc[nH]c(=O)c12",
    "Endpoint Result": "> 100 µM"
  },
  {
    "Compound": "CN(COC(=O)C(C)(C)C)c1nc(N(C)COC(=O)C(C)(C)C)nc(N(C)COC(=O)C(C)(C)C)n1",
    "Endpoint Result": "> 100 µM"
  },
  {
    "Compound": "O=C(N/N=C/c1coc2ccc(Cl)cc2c1=O)c1cc(O)c(O)c(O)c1",
    "Endpoint Result": "73.3 µM"
  },
  {
    "Compound": "O=C1c2ccccc2-n2c1nc1ccc([N+](=O)[O-])cc1c2=O",
    "Endpoint Result": "> 100 µM"
  },
  {
    "Compound": "Nc1ncnc2c1ncn2C1OC(F)(COS(N)(=O)=O)C(O)C1O (stereo unspecified)",
    "Endpoint Result": "> 100 µM"
  },
  {
    "Compound": "O=C1/C(=C/c2ccccc2)CN(C(=O)/C=C/c2ccccc2)C/C1=C\\c1ccccc1",
    "Endpoint Result": "> 100 µM"
  },
  {
    "Compound": "CCc1cn(C2CC(CO)C(CO)S2)c(=O)[nH]c1=O (stereo unspecified)",
    "Endpoint Result": "> 100 µM"
  },
  {
    "Compound": "O=C(/C=C/c1cccc(Cl)c1)c1ccccc1",
    "Endpoint Result": "7.45 µM"
  },
  {
    "Compound": "CCOC(=O)c1c(C)n(Cc2ccc(Cl)cc2Cl)c2c1cc(O)c1[nH]c(Cc3ccccc3)nc12",
    "Endpoint Result": "3.8 µM"
  },
  {
    "Compound": "Cc1ccc(-c2csc3ncnc(Nc4cccc(O)c4)c23)cc1",
    "Endpoint Result": "> 100 µM"
  },
  {
    "Compound": "O=C1C=CC2(C=C1)O[C@H](CCc1ccccc1)[C@@H](CCc1ccccc1)O2",
    "Endpoint Result": "> 100 µM"
  },
  {
    "Compound": "CCOC1OC(CO[Si](C)(C)C(C)(C)C)C(O)CC1n1ccc(=O)[nH]c1=O (stereo unspecified)",
    "Endpoint Result": "> 100 µM"
  }
]
